# credit: paper PMC11620503

Reported Ki is given for each of the following compounds.
Biological target: UniProt Q58XD2
Sequence (Q58XD2 entry or part of it): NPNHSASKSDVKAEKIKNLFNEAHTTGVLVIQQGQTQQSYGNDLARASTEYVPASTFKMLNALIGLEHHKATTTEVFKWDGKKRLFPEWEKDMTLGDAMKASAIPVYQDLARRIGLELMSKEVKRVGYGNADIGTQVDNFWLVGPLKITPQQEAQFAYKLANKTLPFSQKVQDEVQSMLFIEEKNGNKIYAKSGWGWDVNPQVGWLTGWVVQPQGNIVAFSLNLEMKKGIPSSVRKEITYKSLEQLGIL
Assay: Ki app determination (Waley's method)

INSERT INTO assay_data (smiles_representation, property_label, result) VALUES
  ('C[C@]1(Cn2ccnn2)[C@H](C(=O)O)N2C(=O)C[C@H]2S1(=O)=O', 'Ki', '> 100 µM');

Look up Ki for this compound: `O=C(O)C[C@@H]1CC[C@H](NC(=O)Cc2cccs2)B(O)O1`
> 100 µM

Subsequent entry: `O=C(NC1CCNCC1)[C@@H]1CC[C@@H]2CN1C(=O)N2OS(=O)(=O)O`
> 100 µM
